These entries and their values trace back to patent US20050070500A1.

- Test protocol: in vivo
- Condition label: male, beagle, dog, po, 21.4 mg/kg
Recorded endpoint: concentration at 120 minutes (ng/mL)

- Compound: "N[C@H]1C(O)O[C@H](CO)[C@@H](O)[C@@H]1O (stereo partly shown)"
  Unit of measurement: "ng/mL"
  Reading: 533
